# target-or-test-system: human adrenergic β2 receptor (Homo sapiens, UniProt P07550)
# Sequence (P07550 whole entry): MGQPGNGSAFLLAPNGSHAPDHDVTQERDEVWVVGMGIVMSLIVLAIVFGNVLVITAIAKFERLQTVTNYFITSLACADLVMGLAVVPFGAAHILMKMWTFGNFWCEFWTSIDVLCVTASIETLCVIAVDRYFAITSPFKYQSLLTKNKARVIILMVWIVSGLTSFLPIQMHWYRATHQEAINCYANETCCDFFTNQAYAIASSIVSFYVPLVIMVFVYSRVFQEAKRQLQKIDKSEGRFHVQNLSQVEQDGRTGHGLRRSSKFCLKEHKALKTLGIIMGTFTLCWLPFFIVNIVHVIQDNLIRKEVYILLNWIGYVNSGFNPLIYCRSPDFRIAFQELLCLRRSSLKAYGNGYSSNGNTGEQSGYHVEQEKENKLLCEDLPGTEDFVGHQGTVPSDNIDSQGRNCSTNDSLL
pIC50: −log10 of the molar value.
Listing: pIC50 of selected compounds
property-label: pIC50

compound: COc1cc(NCC(=O)NCCCc2cccc(C3(C(=O)O[C@H]4CN5CCC4CC5)CCCCC3)c2)c(Cl)cc1CNC[C@H](O)c1ccc(O)c2[nH]c(=O)ccc12
target-or-test-system: human adrenergic β2 receptor (Homo sapiens, UniProt P07550)
observed: 7.89
//
compound: COc1cc(OCC(=O)OC2CCC(Cc3cccc(C4(C(=O)O[C@H]5CN6CCC5CC6)CCCCC4)c3)CC2)c(Cl)cc1CNC[C@H](O)c1ccc(O)c2[nH]c(=O)ccc12 (some centres unmarked)
target-or-test-system: human adrenergic β2 receptor (Homo sapiens, UniProt P07550)
observed: 8.05
//
compound: COc1cc(NC(=O)CCCc2cccc(C3(C(=O)OCC45CCN(CC4)CC5)CCCCC3)c2)c(Cl)cc1CNC[C@H](O)c1ccc(O)c2[nH]c(=O)ccc12
target-or-test-system: human adrenergic β2 receptor (Homo sapiens, UniProt P07550)
observed: 8.64
//
compound: O=C(CCCc1cccc(C2(C(=O)O[C@H]3CN4CCC3CC4)CCCCC2)c1)N[C@H]1CC[C@H](CNC[C@H](O)c2ccc(O)c3[nH]c(=O)ccc23)CC1
target-or-test-system: human adrenergic β2 receptor (Homo sapiens, UniProt P07550)
observed: 8.38
//
compound: O=C(NCCCCc1cccc(C2(C(=O)O[C@H]3CN4CCC3CC4)CCCCC2)c1)c1ccc(CNC[C@H](O)c2ccc(O)c3[nH]c(=O)ccc23)nc1
target-or-test-system: human adrenergic β2 receptor (Homo sapiens, UniProt P07550)
observed: 7.47
//
compound: COc1cc(C(=O)OCCCc2cccc(C3(C(=O)O[C@H]4CN5CCC4CC5)CCCCC3)c2)c(Cl)cc1CNC[C@H](O)c1ccc(O)c2[nH]c(=O)ccc12
target-or-test-system: human adrenergic β2 receptor (Homo sapiens, UniProt P07550)
observed: 8.36
//
compound: COc1cc(C(=O)OCCCCc2cccc(C3(C(=O)O[C@H]4CN5CCC4CC5)CCCCC3)c2)c(Cl)cc1CNC[C@H](O)c1ccc(O)c2[nH]c(=O)ccc12
target-or-test-system: human adrenergic β2 receptor (Homo sapiens, UniProt P07550)
observed: 8.11
//
compound: O=C(O[C@H]1CN2CCC1CC2)C1(c2cccc(CCCCn3nnc4cc(CNC[C@H](O)c5ccc(O)c6[nH]c(=O)ccc56)ccc43)c2)CCCCC1
target-or-test-system: human adrenergic β2 receptor (Homo sapiens, UniProt P07550)
observed: 7.55
//
compound: COc1cc(OCC(=O)OCCCc2cccc(C3(C(=O)O[C@H]4CN5CCC4CC5)CCCCC3)c2)c(Cl)cc1CNC[C@H](O)c1ccc(O)c2[nH]c(=O)ccc12
target-or-test-system: human adrenergic β2 receptor (Homo sapiens, UniProt P07550)
observed: 8.14
//
compound: COc1cc(OCC(=O)N(C)CCCc2cccc(C3(C(=O)O[C@H]4CN5CCC4CC5)CCCCC3)c2)c(Cl)cc1CNC[C@H](O)c1ccc(O)c2[nH]c(=O)ccc12
target-or-test-system: human adrenergic β2 receptor (Homo sapiens, UniProt P07550)
observed: 8.18
//
compound: COc1cc(C(=O)N(C)CCCc2cccc(C3(C(=O)O[C@H]4CN5CCC4CC5)CCCCC3)c2)c(Cl)cc1CNC[C@H](O)c1ccc(O)c2[nH]c(=O)ccc12
target-or-test-system: human adrenergic β2 receptor (Homo sapiens, UniProt P07550)
observed: 8.00

----------
# target-or-test-system: UniProtKB P07550
pIC50: −log10 of the molar value.

molecule: O=C(O[C@H]1CN2CCC1CC2)C1(c2cccc(CCCCn3c(=O)oc4cc(CNC[C@H](O)c5ccc(O)c6[nH]c(=O)ccc56)ccc43)c2)CCCCC1
pIC50: 8.37

molecule: COc1cc(OCC(=O)NCCCCc2cccc(C3(C(=O)O[C@H]4CN5CCC4CC5)CCCCC3)c2)c(Cl)cc1CNCC(O)c1ccc(O)c2[nH]c(=O)ccc12 (stereo partly drawn)
pIC50: 8.72

molecule: O=C(CCCc1cccc(C2(C(=O)O[C@H]3CN4CCC3CC4)CCCCC2)c1)Nc1ccc(CNC[C@H](O)c2ccc(O)c3[nH]c(=O)ccc23)nc1
pIC50: 7.64

molecule: COc1cc(C(=O)NCCCc2cccc(C3(C(=O)O[C@H]4CN5CCC4CC5)CCCCC3)c2)c(Cl)cc1CNC[C@H](O)c1ccc(O)c2[nH]c(=O)ccc12
pIC50: 8.42

molecule: O=C1c2ccc(CNC[C@H](O)c3ccc(O)c4[nH]c(=O)ccc34)cc2CN1CCCCc1cccc(C2(C(=O)O[C@H]3CN4CCC3CC4)CCCCC2)c1
pIC50: 7.59

molecule: COc1cc(NC(=O)CCCc2ccc(C3(C(=O)O[C@H]4CN5CCC4CC5)CCCCC3)cc2)c(Cl)cc1CNC[C@H](O)c1ccc(O)c2[nH]c(=O)ccc12
pIC50: 8.40
